The measured values listed here are drawn from ChEMBL document CHEMBL4689842.

Entries and their Population Mitotic Cells (%)
Tested on: HEK-293T
Assay: Multiplex assay against HEK293T
Type: toxicity, cell-based
Conditions: human, 48 h, 1 µM, compound concentration 1 uM, replicate 1
Record the value in %, omitting the unit from your answer.

Examples from the recorded data:
COMPOUND	UNITS SYMBOL	Population Mitotic Cells (%)
Cc1cc(C)cc(-c2cnc3cc(Cl)c(-c4cccc(O)c4)cc3c2OCCCN)c1	%	48
CN1CCC[C@@H]1CCO[C@](C)(c1ccccc1)c1ccc(Cl)cc1.O=C(O)/C=C/C(=O)O [CLEMASTINE FUMARATE]	%	33
Cc1[nH]c(/C=C2\C(=O)Nc3ccc(S(=O)(=O)N(C)c4cccc(Cl)c4)cc32)c(C)c1C(=O)N1CCN(C)CC1	%	44
C[C@@H](NCCCc1cccc(C(F)(F)F)c1)c1cccc2ccccc12.Cl [CINACALCET HYDROCHLORIDE]	%	72
C=CC(=O)Nc1cccc(C(=O)Nc2ccc(Nc3cc(-c4[nH]c(SC)nc4C)ccn3)cc2)c1	%	61
CN(C)CC#Cc1ccc(OCCCc2sc(N3CCc4cccc(C(=O)Nc5nc6ccccc6s5)c4C3)nc2C(=O)O)c(F)c1	%	66

Data request, read-out Population Mitotic Cells (%), for C=CC(=O)Nc1ccc2ncnc(Nc3ccc(OCc4cccc(F)c4)c(Cl)c3)c2c1.Cc1ccc(S(=O)(=O)O)cc1
55

Tell me the measured Population Mitotic Cells (%) of CNc1nc(NCc2ccc(NS(C)(=O)=O)cc2Cl)cc(-c2ccccn2)n1 , please.
52

###

Parameter: Population Mitochondria Different-Phenotype (%). Scope: all listed entries.
Test system: U2OS
Assay: Multiplex assay against U2OS
Assay type: toxicity, cell-based
Conditions: human, 48 h, 10 µM, compound concentration 10 uM, replicate 2
# number only, unit % dropped from output

Solved entries (count: 5):
MOLECULE	UNITS SYMBOL	ENDPOINT RESULT
CN(C)C(=O)/C(C#N)=C/c1ccc(-c2nc3cnc4[nH]ccc4c3n2C2CCCCC2)o1	%	27
CN(C)C(=O)N[C@H]1CC[C@H](CCN2CCN(c3cccc(Cl)c3Cl)CC2)CC1.Cl [CARIPRAZINE HYDROCHLORIDE]	%	89
NC(=O)Nc1cc(-c2cccc(F)c2)sc1C(=O)N[C@H]1CCCNC1	%	92
CNc1nc(NCc2ccc(NS(C)(=O)=O)cc2Cl)cc(-c2ccccn2)n1	%	41
CCn1c(=O)c(-c2ccc(Cl)cc2Cl)cc2cnc(Nc3ccc(N4CCNCC4)c(F)c3)nc21	%	91

Any idea what Population Mitochondria Different-Phenotype (%) was measured for C[C@@]1(C(=O)Nc2ccc(F)nc2)CCCN1c1nc(Nc2cc(C3CC3)n[nH]2)c2cccn2n1 ?
83

If you can, please state the reported Population Mitochondria Different-Phenotype (%) value of CN(C)CC#Cc1ccc(OCCCc2sc(N3CCc4cccc(C(=O)Nc5nc6ccccc6s5)c4C3)nc2C(=O)O)c(F)c1 .
51

What Population Mitochondria Different-Phenotype (%) value was documented for this molecule, Cn1cc(-c2[nH]c3cc(NC(=O)[C@H](N)C4CCCCC4)cc4c3c2C=NNC4=O)cn1 ?
61

Query: Population Mitochondria Different-Phenotype (%); subject: C[C@@H](NCCCc1cccc(C(F)(F)F)c1)c1cccc2ccccc12.Cl [CINACALCET HYDROCHLORIDE]
89

Which Population Mitochondria Different-Phenotype (%) is listed for CC(C)NCC(O)COc1ccc(CCOCC2CC2)cc1.Cl (configuration not stated) [BETAXOLOL HYDROCHLORIDE] ?
50

###

Tested on: HEK-293T
Assay: Multiplex assay against HEK293T
Type: toxicity, cell-based
Conditions: human, 12 h, 1 µM, compound concentration 1 uM, replicate 2
VALUE TYPE: Population Fragmented Nuclei (%)
Give your result in % as a bare value.

# count of solved cases: 6
COMPOUND	ENDPOINT RESULT
COc1cc(-n2cnc3cc(-c4ccc(Cl)cc4)sc3c2=O)ccc1OCCN1CCCC1	5
C=CC(=O)Nc1ccc2ncnc(Nc3ccc(OCc4cccc(F)c4)c(Cl)c3)c2c1.Cc1ccc(S(=O)(=O)O)cc1	6
COc1cccc([C@@H](C)NCCCc2ccccc2Cl)c1.Cl [TECALCET HYDROCHLORIDE]	3
C=CC(=O)Nc1cccc(C(=O)Nc2ccc(Nc3cc(-c4[nH]c(SC)nc4C)ccn3)cc2)c1	7
Cn1cc(-c2[nH]c3cc(NC(=O)[C@H](N)C4CCCCC4)cc4c3c2C=NNC4=O)cn1	6
CNCc1ccc(-c2cc(-c3nc(-c4ccc(S(=O)(=O)C(C)C)cc4)cnc3N)on2)cc1	66

Shifting focus to the compound that follows.
Look up Population Fragmented Nuclei (%): Cc1cc(C)cc(-c2cnc3cc(Cl)c(-c4cccc(O)c4)cc3c2OCCCN)c1
5

###

System: Fibroblast
Assay: Multiplex assay against human fibroblast
Format: toxicity, cell-based
Details: 12 h, 1 µM, compound concentration 1 uM, replicate 1
VALUE TYPE: Population Fragmented Nuclei (%)
# output: bare number, implied unit %

COMPOUND	UNITS SYMBOL	Population Fragmented Nuclei (%)
C=CC(=O)Nc1cccc(C(=O)Nc2ccc(Nc3cc(-c4[nH]c(SC)nc4C)ccn3)cc2)c1	%	23

Find the recorded Population Fragmented Nuclei (%) belonging to COc1ncc(-c2ccc3nccc(-c4ccnnc4)c3c2)cc1NS(=O)(=O)c1ccc(F)cc1F and report it.
21

Consider the compound shown here: CN1CCN(c2ccc(OC(F)(F)F)c(Nc3ncc4c(n3)-c3c(c(C(N)=O)nn3CCO)CC4)c2)CC1 What is its recorded Population Fragmented Nuclei (%)?
23

Entry under review: CN1CCN(CCOc2cc(OC3CCOCC3)c3c(Nc4c(Cl)ccc5c4OCO5)ncnc3c2)CC1 . Reported Population Fragmented Nuclei (%)?
22

// returns reported Population Fragmented Nuclei (%) for input CN(C)CC#Cc1ccc(OCCCc2sc(N3CCc4cccc(C(=O)Nc5nc6ccccc6s5)c4C3)nc2C(=O)O)c(F)c1
27

I'd like to know its Population Fragmented Nuclei (%). The compound in question is Cc1[nH]c(/C=C2\C(=O)Nc3ccc(S(=O)(=O)N(C)c4cccc(Cl)c4)cc32)c(C)c1C(=O)N1CCN(C)CC1
25

###

Test system: Fibroblast
Experiment: Multiplex assay against human fibroblast
Type: toxicity, cell-based
Conditions: 12 h, 1 µM, compound concentration 1 uM, replicate 2
Returns: string. Value is fulfilled if measured Total Cell Count is below 80, and not fulfilled if it is greater than or equal to it.

Example entries and their recorded answers appear below.
MOLECULE	ANSWER LABEL
CN(C)C(=O)/C(C#N)=C/c1ccc(-c2nc3cnc4[nH]ccc4c3n2C2CCCCC2)o1	fulfilled
Cc1c(-c2ccc(O)cc2)n(Cc2ccc(OCCN3CCCCCC3)cc2)c2ccc(O)cc12	fulfilled
Cc1[nH]c(/C=C2\C(=O)Nc3ccc(S(=O)(=O)N(C)c4cccc(Cl)c4)cc32)c(C)c1C(=O)N1CCN(C)CC1	not fulfilled
Cc1nc(-c2cn3c(n2)-c2ccc(-c4cnn(C(C)(C)C(N)=O)c4)cc2OCC3)n(C(C)C)n1	not fulfilled

Quick check: Total Cell Count of Cc1nc(Nc2n[nH]c3c2CN(C(=O)N[C@H](CN(C)C)c2ccccc2)C3(C)C)c2sccc2n1 under 80?
not fulfilled

Please determine if Cc1nc(-c2ccc(-c3ccc(C(=O)N4CCc5cc6c(cc54)C4(CCN(C)CC4)CO6)cc3)c(C)c2)no1 is below 80 in terms of Total Cell Count.
fulfilled

Identify whether the molecule CC(C)NCC(O)COc1ccc(CCOCC2CC2)cc1.Cl (configuration not stated) [BETAXOLOL HYDROCHLORIDE] records Total Cell Count below 80.
fulfilled

Here's an entry: CN1CCCC(n2nc(Cc3ccc(Cl)cc3)c3ccccc3c2=O)CC1.Cl (configuration not stated) [AZELASTINE HYDROCHLORIDE] . Is its Total Cell Count below 80?
fulfilled

Please check: Total Cell Count for CNc1nc(NCc2ccc(NS(C)(=O)=O)cc2Cl)cc(-c2ccccn2)n1 , strictly under 80 or not?
fulfilled

Does the reported Total Cell Count of Cc1csc2c(N[C@@H](C)CN3CCN(S(=O)(=O)c4ccc(Cl)c(Cl)c4)CC3)ncnc12 stay below 80?
fulfilled

I wonder whether COc1cccc([C@@H](C)NCCCc2ccccc2Cl)c1.Cl [TECALCET HYDROCHLORIDE] has Total Cell Count below 80. Can you tell?
fulfilled

Answer whether the molecule C=CC(=O)Nc1cccc(C(=O)Nc2ccc(Nc3cc(-c4[nH]c(SC)nc4C)ccn3)cc2)c1 has Total Cell Count strictly less than 80
not fulfilled

I wonder whether O=C1NCN(c2ccccc2)C12CCN(CCCOc1ccc(F)cc1)CC2 [SPIRAMIDE] has Total Cell Count below 80. Can you tell?
fulfilled

Dear colleague, could you confirm whether Total Cell Count of C=CC(=O)Nc1ccc2ncnc(Nc3ccc(OCc4cccc(F)c4)c(Cl)c3)c2c1.Cc1ccc(S(=O)(=O)O)cc1 falls below 80? Thanks.
fulfilled

Quick check: Total Cell Count of CN(C)C(=O)N[C@H]1CC[C@H](CCN2CCN(c3cccc(Cl)c3Cl)CC2)CC1.Cl [CARIPRAZINE HYDROCHLORIDE] under 80?
fulfilled

Regarding Cn1cc(-c2[nH]c3cc(NC(=O)[C@H](N)C4CCCCC4)cc4c3c2C=NNC4=O)cn1 , kindly confirm whether its Total Cell Count is beneath 80.
fulfilled

Confirm or reject: Total Cell Count of C[C@@H](NCCCc1cccc(C(F)(F)F)c1)c1cccc2ccccc12.Cl [CINACALCET HYDROCHLORIDE] lies strictly below 80
fulfilled
